All values here come from the supplement of paper PMC12042874.

- assayInfo: amyloid nucleation score (Sup35N fusion, yeast selection) (log enrichment); library NNK2; higher = more nucleation; inactive = no reads after selection;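 further: zero at mode of non-aggregating sequences after 7 days selection at 30°C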
metricName: amyloid nucleation score
Enter the number alone.

Below: 5 substances and their reported amyloid nucleation score.
DRIQDQRIGYVVEFSIEKVS = -0.742
VGPPEIWVEFFAV = -0.813
AKVRLYVRGGSLLIGIRSVV = 0.555
IRYWLNERMVSDRRTVTGGV = 7.47
MLVLSTGHPRGFWTRVVCCD = 0.092

Inquiry: Look up amyloid nucleation score: RVRKNCRFWSNCSCIVMVGR
Reply text: 5.07

Inquiry: Look up amyloid nucleation score: RQMPVGGCVFMTKVCKT
Reply text: 0.232

Inquiry: Look up amyloid nucleation score: YSDMSFAVALAVSWVQAGAW
Reply text: -0.618

* * *

Overview of recorded amyloid nucleation score for various substances
- assayInfo: amyloid nucleation score (Sup35N fusion, yeast selection) (log enrichment); library NNK2; higher = more nucleation; inactive = no reads after selection
Enter the number alone.

Below: 10 substances and their reported amyloid nucleation score.
WNSVIFCR = -0.704
SLNNIRLLTHYLDFGVRNLA = 3.04
GLRTLERSDVSVGVRRYLG = 1.33
IVGSDGGNIFTRLGCSAYRE = -1.14
GCISVNCHSLLRTHAFRG = 1.28
VSVVDGSILMNLCLRLVLRR = -0.068
GLYANFVPAIRTDGRGWRFW = -0.352
VQISWRFVPWI = 1.79
TYGCLFDSSIMSFQLSLDNF = -0.28
YLGRHDYKSVGGSFIPRQSK = -0.661

Inquiry: Look up amyloid nucleation score: HISLVSCHEM
Reply text: -0.213

Inquiry: Look up amyloid nucleation score: LLNFGVLGSDLSINKCNFSS
Reply text: 1.89

Inquiry: Look up amyloid nucleation score: SRTRCDIWFNLRTFMVRVRK
Reply text: -0.46

Inquiry: Look up amyloid nucleation score: NKTPYIDFVLTR
Reply text: 0.236

Inquiry: Look up amyloid nucleation score: VEMLFLSFMRPVLLGTMVAV
Reply text: 0.007

Inquiry: Look up amyloid nucleation score: GCDVDKVNGRRVVYPDTEGL
Reply text: 0.697

Inquiry: Look up amyloid nucleation score: MMLSLANNHGSL
Reply text: 0.174

Inquiry: Look up amyloid nucleation score: RPNNLDMVH
Reply text: 0.619

Inquiry: Look up amyloid nucleation score: YWVYAGIGVRMCNRVYNNLR
Reply text: 0.336

Inquiry: Look up amyloid nucleation score: LDYSNFNTRKFAKDEGDMRR
Reply text: 8.37

Inquiry: Look up amyloid nucleation score: GYNTRKYWISGYNTTDSPGK
Reply text: -1.13

Inquiry: Look up amyloid nucleation score: YQVFSQLEMRTYCKGKDFTL
Reply text: 4.72

* * *

- assayInfo: amyloid nucleation score (Sup35N fusion, yeast selection) (log enrichment); library NNK3; higher = more nucleation; inactive = no reads after selection
metricName: amyloid nucleation score

Below: 5 substances and their reported amyloid nucleation score.
HRLVGTNISSTR = inactive
LSSGNGSFVRYI = inactive
SNTCHLINAKVDPVHERMLS = 0.176
NYILSHWELV = inactive
GTNDDESRRRRREWD = inactive

Inquiry: Look up amyloid nucleation score: CLLTLMREVSCLLYFYHRAW
Reply text: 1.56

Inquiry: Look up amyloid nucleation score: FSGNRSGESSVRWNQYELGV
Reply text: inactive

Inquiry: Look up amyloid nucleation score: SLVSGLRCVWLMFVSNGHQK
Reply text: inactive

Inquiry: Look up amyloid nucleation score: YFLNSQVSNLLGS
Reply text: inactive

Inquiry: Look up amyloid nucleation score: TLSCDRKNCVVHCFLIQRFL
Reply text: inactive

Inquiry: Look up amyloid nucleation score: FLPPKMVLFPVSEWSLDLRY
Reply text: inactive

Inquiry: Look up amyloid nucleation score: KHLGKAKSSGST
Reply text: inactive

Inquiry: Look up amyloid nucleation score: EITLYEQGNNRSLVGPERKS
Reply text: inactive

Inquiry: Look up amyloid nucleation score: NLGLQDFNCNWGFTYGGLTK
Reply text: inactive

Inquiry: Look up amyloid nucleation score: SVSASRSEVTRE
Reply text: -0.146

Inquiry: Look up amyloid nucleation score: YLKGTMSDSKNGPYDRGKLT
Reply text: inactive

Inquiry: Look up amyloid nucleation score: MALHRFS
Reply text: inactive

Inquiry: Look up amyloid nucleation score: PKVRMAPVNERNDFFSVILG
Reply text: inactive

Inquiry: Look up amyloid nucleation score: WMVYDSLILFHDVRRSYLPM
Reply text: inactive

Inquiry: Look up amyloid nucleation score: TLDINMNLRSLYVGQHYADI
Reply text: inactive

Inquiry: Look up amyloid nucleation score: SASCKYGVCLSDLLVSDWHY
Reply text: inactive

Inquiry: Look up amyloid nucleation score: VMKPSNVVQGSMNPESSLGM
Reply text: inactive

Inquiry: Look up amyloid nucleation score: VVLFYDSCSG
Reply text: inactive

Inquiry: Look up amyloid nucleation score: VSWNWATGLRFRPLSCYGLV
Reply text: inactive

Inquiry: Look up amyloid nucleation score: TSTGYNPIYYIMMFN
Reply text: 0.677

* * *

- assayInfo: amyloid nucleation score (Sup35N fusion, yeast selection) (log enrichment); library NNK1; higher = more nucleation; inactive = no reads after selection
Outcome label depends on amyloid nucleation score relative to 4: at/above gives Fulfilled, below gives Not fulfilled.

Inquiry: # bool: amyloid nucleation score of VVEKYSCIRESFHEGFG >= 4
Reply text: Not fulfilled

Inquiry: # bool: amyloid nucleation score of SCIWIWICNHSMFGMETGLG >= 4
Reply text: Fulfilled

Inquiry: # bool: amyloid nucleation score of DAASHYINLCNHSAEFSKVG >= 4
Reply text: Not fulfilled

Inquiry: # bool: amyloid nucleation score of ETRYPPRVNSVYTVWPMYLL >= 4
Reply text: Not fulfilled

Inquiry: # bool: amyloid nucleation score of HVHVTACCRLM >= 4
Reply text: Fulfilled

Inquiry: # bool: amyloid nucleation score of MFKNRGG >= 4
Reply text: Not fulfilled

Inquiry: # bool: amyloid nucleation score of DLGNLFLGISVKCI >= 4
Reply text: Not fulfilled

Inquiry: # bool: amyloid nucleation score of CSDRVKTLSFCWSPSVVFW >= 4
Reply text: Not fulfilled

Inquiry: # bool: amyloid nucleation score of VYCCLNFLAFNFSWV >= 4
Reply text: Fulfilled

* * *

- assayInfo: amyloid nucleation score (Sup35N fusion, yeast selection) (log enrichment); library NNK1; higher = more nucleation; inactive = no reads after selection
Outcome label depends on amyloid nucleation score relative to 0.09: at/above gives Satisfied, below gives Not satisfied.

These solved cases illustrate the format of a correct answer.
YWNKITRFFCMLESNVTLHT = Satisfied
TMYTVVPNHWNNISFRALSR = Not satisfied
LYYNASTAIELNLEYSIKWL = Satisfied
ASSSGFSMGLCQMYNGTFMG = Not satisfied
LCWTIWV = Not satisfied
GVSMGKESMIV = Not satisfied
YQNFPVKLITQKCLCWIDRC = Satisfied
FMCTINKFLYTVACPWHYLP = Satisfied

Inquiry: # bool: amyloid nucleation score of YDNWVVGNYGLSAERICRVE >= 0.09
Reply text: Not satisfied

Inquiry: # bool: amyloid nucleation score of YRDSGDRNLGIAPI >= 0.09
Reply text: Satisfied

* * *

- assayInfo: amyloid nucleation score (Sup35N fusion, yeast selection) (log enrichment); library NNK3; higher = more nucleation; inactive = no reads after selection
metricName: amyloid nucleation score

IVYGPCYTLYVRCSVFSLSK = 2.31
HKFDNKIRPTWYVVLPIFNA = inactive
HVTQLNGVAYSCEI = inactive
EVWRVSDSYSVDEIFVLLNL = inactive
RTAVVWV = inactive
IDYRMYYY = inactive

Inquiry: Look up amyloid nucleation score: RIFLIICKMYYFRNNRLFRM
Reply text: -0.508

Inquiry: Look up amyloid nucleation score: FLTDASWGSIFWKFLRASFV
Reply text: 0.621

Inquiry: Look up amyloid nucleation score: TYVRIGVCGVLWFCTFFTQC
Reply text: inactive

Inquiry: Look up amyloid nucleation score: FSNGPSAVYYFIYLGLFNKN
Reply text: 1.48

Inquiry: Look up amyloid nucleation score: VDFYLR
Reply text: inactive

Inquiry: Look up amyloid nucleation score: ESWKWYQYSVQWAWYEHPHS
Reply text: inactive

* * *

- assayInfo: amyloid nucleation score (Sup35N fusion, yeast selection) (log enrichment); library NNK2; higher = more nucleation; inactive = no reads after selection
metricName: amyloid nucleation score
Enter the number alone.

DQYYNH = 0.29

Inquiry: Look up amyloid nucleation score: DQSGDQARNCKCFGSSL
Reply text: 0.298

Inquiry: Look up amyloid nucleation score: SIARHFRGFV
Reply text: 0.734

Inquiry: Look up amyloid nucleation score: DCVNGVLFDGSPHVYGFLEW
Reply text: 0.419

* * *

- assayInfo: amyloid nucleation score (Sup35N fusion, yeast selection) (log enrichment); library NNK1; higher = more nucleation; inactive = no reads after selection
metricName: amyloid nucleation score

Below: 5 substances and their reported amyloid nucleation score.
GVNFFGCHCVHN = -0.113
AFFYVVCFDVCKMSTMYLFG = -2.44
TINDKMITRFSLLCPAVSMI = 1.21
NVGYTYGYRKNSADNMAFCV = inactive
MRFMPVVWCRRMQESLGHST = -0.026

Inquiry: Look up amyloid nucleation score: PILMFTVCMSDSQTVLNFCS
Reply text: 6.56

Inquiry: Look up amyloid nucleation score: VVYHVFFWELTNAKHNLPML
Reply text: -1.17

Inquiry: Look up amyloid nucleation score: SFRIVLLPPF
Reply text: 2.64

Inquiry: Look up amyloid nucleation score: SFSVSLTTYVYYFICHYAGI
Reply text: 1.96

Inquiry: Look up amyloid nucleation score: RYSSPSRGTAMFSLLYLYVY
Reply text: 0.694

Inquiry: Look up amyloid nucleation score: LSTVRLFILEPLYGGPPRNG
Reply text: -1.4

Inquiry: Look up amyloid nucleation score: QMRSVYVQDTINMALIIHEL
Reply text: 0.617

Inquiry: Look up amyloid nucleation score: HVSACRNKIHLWSRTHLSGE
Reply text: 0.83

Inquiry: Look up amyloid nucleation score: TVNVFFLQACSRSC
Reply text: 7.73
